Tested on: ERK pathway
protocolSummary: cells
Assay type: cell-based, Human
conditionDetails: Homo sapiens, HEK293
quantity: pIC50
// pIC50 here means minus log10 of the molar concentration (mol/L)

CCc1c(Cc2ccc(F)cc2)c(=O)oc2cc(OC(=O)c3ccccc3)ccc12    4.19

Output pIC50 of CCC(=O)Oc1ccc2c(CC)c(Cc3ccccc3)c(=O)oc2c1
4.30

Output pIC50 of Cc1c(Cc2ccc(F)cc2)c(=O)oc2cc(OC(=O)N(C)C)ccc12
5.39

Output pIC50 of CCCc1c(Cc2ccc(F)cc2)c(=O)oc2cc(OC(=O)N(C)C)ccc12
5.37

Output pIC50 of CCC(=O)Oc1ccc2c(C)c(Cc3ccc(F)cc3)c(=O)oc2c1
4.42

====

Each record here notes measured inhibition at 2 µM.
assayedSystem: phosphorylated MEK1 (Homo sapiens, UniProt Q02750)
Sequence (Q02750 whole entry): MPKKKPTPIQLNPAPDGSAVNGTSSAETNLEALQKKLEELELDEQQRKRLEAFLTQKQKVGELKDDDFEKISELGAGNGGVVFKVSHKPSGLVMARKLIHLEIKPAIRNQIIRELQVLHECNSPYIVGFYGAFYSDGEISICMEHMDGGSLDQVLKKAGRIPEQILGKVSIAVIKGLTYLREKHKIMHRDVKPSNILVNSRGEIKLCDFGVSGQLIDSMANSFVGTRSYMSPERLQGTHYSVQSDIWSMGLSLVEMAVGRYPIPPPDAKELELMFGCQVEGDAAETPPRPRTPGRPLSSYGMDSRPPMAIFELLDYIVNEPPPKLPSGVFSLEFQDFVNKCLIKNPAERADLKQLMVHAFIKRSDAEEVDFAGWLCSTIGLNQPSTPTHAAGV
protocolSummary: MEK1 binding assay (HTRF, tracer displacement)
conditionDetails: read-out: % binding (2 µM)
Numbers only; they are read as %.

CC(=O)Oc1cc2oc(=O)c(Cc3ccccc3)c(C)c2cc1Cl    30.6
CCCC(=O)Oc1ccc2c(CCC)c(Cc3ccccc3)c(=O)oc2c1    14
O=c1cc(CO)c2ccc(O)cc2o1    36.3
CCCc1c(Cc2ccc(F)cc2)c(=O)oc2cc(OC(=O)N(C)C)ccc12    66.2
CCCc1c(Cc2ccc(F)cc2)c(=O)oc2cc(O)ccc12    20.9

Output inhibition at 2 µM of CCC(=O)Oc1ccc2c(C)c(Cc3ccccc3)c(=O)oc2c1
64.5

====

assayedSystem: UniProt Q02750
protocolSummary: MEK1 binding assay (HTRF, tracer displacement)
conditionDetails: read-out: % binding (20 µM)
quantity: inhibition at 20 µM (%)
Numbers only; they are read as %.

// below: answered compounds
Cc1c(Cc2ccccc2)c(=O)oc2cc(OS(=O)(=O)c3ccccc3)c(Cl)cc12    24.5
CCCCC(=O)Oc1ccc2c(C)c(Cc3ccccc3)c(=O)oc2c1    21.2
CC(=O)Oc1ccc2c(C)c(Cc3ccc(F)cc3)c(=O)oc2c1    78.2

Output inhibition at 20 µM of CCCCC(=O)Oc1ccc2c(C)c(Cc3ccc(F)cc3)c(=O)oc2c1
38.3

Output inhibition at 20 µM of CN(C)C(=O)Oc1ccc2cc(Cc3ccccc3)c(=O)oc2c1
25.6

====

assayedSystem: phosphorylated MEK1 (Homo sapiens)
protocolSummary: MEK1 binding assay (HTRF, tracer displacement)
conditionDetails: read-out: % binding (20 µM)
Short version: inhibition at 20 µM at least 30% is Fulfilled, less is Not fulfilled.

Solved entries (count: 4):
CCc1c(Cc2ccc(F)cc2)c(=O)oc2cc(OC(=O)c3ccccc3)ccc12 [Compound 67]    Not fulfilled
COc1ccc2c(C(=O)O)c(C(=O)c3ccccc3)c(=O)oc2c1 [Compound 89, 3-Benzoyl-4-carboxy-7-methoxycoumarin]    Not fulfilled
CCC(=O)Oc1cc2oc(=O)c(Cc3ccccc3)c(C)c2cc1Cl [Compound 34]    Fulfilled
CCCC(=O)Oc1cc2oc(=O)c(Cc3ccccc3)c(C)c2cc1Cl [Compound 41]    Not fulfilled

Hi team, for CCc1c(Cc2ccc(F)cc2)c(=O)oc2cc(OC(C)=O)ccc12 [Compound 32] , is the recorded inhibition at 20 µM at or above 30%?
Fulfilled

Hi team, for O=C(c1ccccc1)c1cc2ccc(O)cc2oc1=O [Compound 85, 3-Benzoyl-7-hydroxycoumarin] , is the recorded inhibition at 20 µM at or above 30%?
Not fulfilled

Hi team, for Cc1c(Cc2ccccc2)c(=O)oc2cc(OC(=O)N(C)C)ccc12 [Compound 13] , is the recorded inhibition at 20 µM at or above 30%?
Fulfilled

====

assayedSystem: phosphorylated MEK1 (Homo sapiens, UniProt Q02750)
protocolSummary: MEK1 binding assay (HTRF, tracer displacement)
conditionDetails: read-out: % binding (20 µM)
Class assignment keyed on inhibition at 20 µM, ranges lower bin = under 20%, middle bin = from 20% up to 70%, upper bin = 70% and over

Solved entries (count: 3):
COc1ccc2c(C#N)c(C(=O)c3ccccc3)c(=O)oc2c1    middle bin
CCCc1c(Cc2ccccc2)c(=O)oc2cc(OC(=O)c3ccccc3)ccc12    middle bin
CCN(CC)C(=O)Oc1cc2oc(=O)c(Cc3ccccc3)c(C)c2cc1Cl    middle bin

Note: place this compound into its band. Item: CCc1c(Cc2ccc(F)cc2)c(=O)oc2cc(OC(=O)N(CC)CC)ccc12
middle bin

Note: place this compound into its band. Item: CCC(=O)Oc1ccc2c(CC)c(Cc3ccc(F)cc3)c(=O)oc2c1
upper bin

Note: place this compound into its band. Item: CCC(=O)Oc1ccc2c(CC)c(Cc3ccccc3)c(=O)oc2c1
upper bin

Note: place this compound into its band. Item: CCCc1c(Cc2ccc(F)cc2)c(=O)oc2cc(OC(=O)c3ccccc3)ccc12
middle bin

Note: place this compound into its band. Item: CCc1c(Cc2ccc(F)cc2)c(=O)oc2cc(OS(=O)(=O)c3ccccc3)ccc12
lower bin

Note: place this compound into its band. Item: CCCC(=O)Oc1ccc2c(CC)c(Cc3ccccc3)c(=O)oc2c1
middle bin

====

Each record here notes measured IC50.
assayedSystem: UniProtKB Q02750
protocolSummary: MEK1 binding assay (HTRF, tracer displacement)
Numbers only; they are read as nM.

// below: answered compounds
Cc1c(Cc2ccccc2)c(=O)oc2cc(OC(=O)N(C)C)c(Cl)cc12 [Compound 14]    307
Cc1c(Cc2ccc(F)cc2)c(=O)oc2cc(OC(=O)N(C)C)ccc12 [Compound 17]    408
Cc1c(Cc2ccccc2)c(=O)oc2cc(OC(=O)N(C)C)ccc12 [Compound 13]    223

Output IC50 of CCc1c(Cc2ccc(F)cc2)c(=O)oc2cc(OC(=O)N(C)C)ccc12 [Compound 18]
54.6

Output IC50 of CCc1c(Cc2ccccc2)c(=O)oc2cc(OC(=O)N(C)C)ccc12 [Compound 15]
163

Output IC50 of CCCc1c(Cc2ccc(F)cc2)c(=O)oc2cc(OC(=O)N(C)C)ccc12 [Compound 19]
158

Output IC50 of CCCc1c(Cc2ccccc2)c(=O)oc2cc(OC(=O)N(C)C)ccc12 [Compound 16]
1040

====

Each record here notes measured melting point.

// below: answered compounds
CCCCC(=O)Oc1ccc2c(CCC)c(Cc3ccc(F)cc3)c(=O)oc2c1    68 to 70 °C
CCCc1c(Cc2ccccc2)c(=O)oc2cc(OC(C)=O)ccc12    139 to 140 °C

Output melting point of CCCc1c(Cc2ccc(F)cc2)c(=O)oc2cc(OC(C)=O)ccc12
150 to 151 °C

Output melting point of CCC(=O)Oc1ccc2c(C)c(Cc3ccccc3)c(=O)oc2c1
118 to 119 °C

Output melting point of CCc1c(Cc2ccc(F)cc2)c(=O)oc2cc(OC(=O)N(CC)CC)ccc12
74 to 75 °C

Output melting point of CCCc1c(Cc2ccc(F)cc2)c(=O)oc2cc(OC(=O)CC)ccc12
94 to 95 °C

Output melting point of COc1ccc2c(C(=O)O)c(C(=O)c3ccccc3)c(=O)oc2c1
196 to 197 °C

Output melting point of CCCc1c(Cc2ccc(F)cc2)c(=O)oc2cc(O)ccc12
130 to 131 °C

Output melting point of CCC(=O)Oc1ccc2c(CC)c(Cc3ccc(F)cc3)c(=O)oc2c1
97 to 98 °C

Output melting point of CCCc1c(Cc2ccccc2)c(=O)oc2cc(OC(=O)c3ccccc3)ccc12
120 °C

Output melting point of CCc1c(Cc2ccc(F)cc2)c(=O)oc2cc(OC(C)=O)ccc12
122 to 123 °C

Output melting point of Cc1c(Cc2ccccc2)c(=O)oc2cc(OC(=O)C(C)(C)C)ccc12
157 to 158 °C

Output melting point of CCCc1c(Cc2ccc(F)cc2)c(=O)oc2cc(OC(=O)c3ccccc3)ccc12
95 to 96 °C

Output melting point of CCCc1c(Cc2ccc(F)cc2)c(=O)oc2cc(OC(=O)N(C)C)ccc12
82 to 84 °C

Output melting point of COc1ccc2cc(C(=O)c3ccccc3)c(=O)oc2c1
149 to 150 °C

Output melting point of CCc1c(Cc2ccccc2)c(=O)oc2cc(OC(C)=O)ccc12
123 to 125 °C

Output melting point of CCCC(=O)Oc1cc2oc(=O)c(Cc3ccccc3)c(C)c2cc1Cl
107 to 108 °C

Output melting point of CCc1c(Cc2ccc(F)cc2)c(=O)oc2cc(OC(=O)c3ccccc3)ccc12
70 to 71 °C

====

Each record here notes measured TI (CC50/IC50).
System: EV71
protocolSummary: microbe, parasite or virus in culture
The response must contain the number and no unit.

Cc1c(Cc2ccccc2)c(=O)oc2cc(OC(=O)N(C)C)ccc12    60.8
Cc1c(Cc2ccc(F)cc2)c(=O)oc2cc(OC(=O)N(C)C)ccc12    16.36
CCc1c(Cc2ccc(F)cc2)c(=O)oc2cc(OC(=O)N(C)C)ccc12    7.29

Moving on to another compound below.
Output TI (CC50/IC50) of CCCc1c(Cc2ccc(F)cc2)c(=O)oc2cc(OC(=O)N(C)C)ccc12
190

Recorded values, source paper PMC6269873.
